Value source: Sander's compilation of Henry's law constants (doi:10.1136/oem.51.1.68)

// reported Henry solubility constant Hcp at 310 K per item
assay: Henry solubility constant Hcp at 310 K (mol/(m3 Pa)); details: reference: Kaneko et al. (1994)
Answer as a number with no unit attached.

Below, each entry is followed by its recorded Henry solubility constant Hcp at 310 K result.
CCO [ethanol]    0.83
CCCOC(C)=O [propyl ethanoate]    0.021
CC(=O)OCC(C)C [2-methylpropyl ethanoate]    0.01
CC(C)O [2-propanol]    0.58
COC(C)=O [methyl ethanoate]    0.042

Incoming: State its Henry solubility constant Hcp at 310 K for this compound: CCCCOC(C)=O [butyl ethanoate]
Outgoing: 0.013

Incoming: Write down Henry solubility constant Hcp at 310 K measured for item CCCCCOC(C)=O [pentyl ethanoate]
Outgoing: 0.0093

Incoming: Indicate its recorded Henry solubility constant Hcp at 310 K; the compound in question is CC(C)CO [2-methyl-1-propanol]
Outgoing: 0.44

Incoming: Look up and report measured Henry solubility constant Hcp at 310 K for this entry: CC(=O)OC(C)C [2-propyl ethanoate]
Outgoing: 0.013

* * *

test: Henry solubility constant Hcp at 310 K (mol/(m3 Pa)); details: reference: Kaneko et al. (1994)
PARAMETER: Henry solubility constant Hcp at 310 K
The reply should be a number, written without any unit.

Solved entries:
CCOC(C)=O [ethyl ethanoate]    0.028
CCCO    0.72
CC(=O)OCCC(C)C [3-methylbutyl ethanoate]    0.0088
CCCCCO    0.42

Incoming: Please report the measured Henry solubility constant Hcp at 310 K for CCC(C)CO (stereo not given)
Outgoing: 0.33
